Emax values for the compounds below.
- assay_system: KCNQ 2/3 channels (HEK293 cells stably expressing human KCNQ2 and KCNQ3 subunits) (Homo sapiens, UniProt O43525+O43526)
- Construct: expressed in transfected cells; host or cells: HEK293
- assay_comment: KCNQ2/3 channel activation, thallium flux FLIPR assay with BTC-AM dye
- Assay type: cell-based
- measurement_setup: HEK293; maximum response relative to the response produced by 10 μM retigabine (set at 100%); read-out: Max. %
Note: unit % is implicit; provide only the numeric part.

Examples with answers:
• O=C(Cc1ccc(Cl)cc1)Nn1nc(-c2ccccc2)c2ccccc2c1=O [Example 4] = 157
• O=C(Cc1ccc(Cl)cc1)Nn1nc(-c2ccc(Br)cc2)c2ccccc2c1=O [Example 3] = 100
• CC(C)(C)c1nn(NC(=O)CC2CCCC2)c(=O)c2ccccc12 [Example 62] = 149

Consider the additional compound presented here.
Output Emax of O=C(C[C@@H]1C[C@@H]2C=C[C@H]1C2)Nn1nc(-c2ccc(F)cc2)c2ccccc2c1=O [Example 130]
156
